Assay: PK of compound of Formula (Ia) after single subcutaneous dose of solution formulations in Wistar Han rats
Format: in vivo
Settings: male, Wistar Han, rat, plasma, sc, 50 mg/kg, Wistar Han rats, SC 50 mg/kg, 400 mg/mL solution W (5.00% ethanol, 1.57% poloxamer 188), 3024 h, Mean n = 3
Measure Name: concentration at 3024 h (nM)
API: value field is a number in nM; no unit string.

## Task Which concentration at 3024 h is listed for CC(C)(C#Cc1ccc(-c2ccc(Cl)c3c(NS(C)(=O)=O)nn(CC(F)(F)F)c23)c([C@H](Cc2cc(F)cc(F)c2)NC(=O)Cn2nc(C(F)(F)F)c3c2C(F)(F)[C@@H]2C[C@H]32)n1)S(C)(=O)=O ?
## Result 131

###

Experiment: PK of compound of Formula (Ia) after single intramuscular dose of solution formulations in Wistar Han rats
Type: in vivo
Conditions: male, Wistar Han, rat, plasma, intramuscular, 100 mg/kg, 3.00 h; individual rats; IM 100 mg/kg; solution M, 500 mg/mL; read-out: Plasma concentration
Measure Name: concentration at 3 h (nM)
API: value field is a number in nM; no unit string.

## Task Which concentration at 3 h is listed for CC(C)(C#Cc1ccc(-c2ccc(Cl)c3c(NS(C)(=O)=O)nn(CC(F)(F)F)c23)c([C@H](Cc2cc(F)cc(F)c2)NC(=O)Cn2nc(C(F)(F)F)c3c2C(F)(F)[C@@H]2C[C@H]32)n1)S(C)(=O)=O ?
## Result 304

###

Assay: PK of compound of Formula (Ia) after single subcutaneous dose of solution formulations in beagle dogs
Assay type: in vivo
Conditions: male, beagle, dog, plasma, sc, 12 mg/kg, 1680 h; mean, n = 3 dogs; SC 12 mg/kg; solution T, 400 mg/mL
Experimental: Formulations containing the compound of Formula (Ia), or a pharmaceutically acceptable salt thereof, were prepared as solutions and optionally administered subcutaneously or intramuscularly to rats, rabbits, and/or dogs. A solution of about 400 mg/mL of the compound of Formula (Ia) having 17.00 w/w % water, 36.40 w/w % PEG 300, 35.20 w/w % of a sodium salt of a compound of Formula (Ia), 5.00 w/w % ethanol, and 6.40 w/w % poloxamer 188 was prepared. […]
Measure Name: concentration at 1680 h
Please make sure the unit comes right after the number.

## Task Which concentration at 1680 h is listed for CC(C)(C#Cc1ccc(-c2ccc(Cl)c3c(NS(C)(=O)=O)nn(CC(F)(F)F)c23)c([C@H](Cc2cc(F)cc(F)c2)NC(=O)Cn2nc(C(F)(F)F)c3c2C(F)(F)[C@@H]2C[C@H]32)n1)S(C)(=O)=O ?
## Result 0.0239 µM

###

Experiment: PK of compound of Formula (Ia) after single subcutaneous dose of solution formulations in Wistar Han rats
Format: in vivo
Conditions: male, Wistar Han, rat, plasma, sc, 50 mg/kg, Wistar Han rats, SC 50 mg/kg, 500 mg/mL solution X (5.00% ethanol, 1.91% poloxamer 188), 96.0 h, animals #1-#3
Measure Name: concentration at 96 h (nM)
API: value field is a number in nM; no unit string.

## Task Which concentration at 96 h is listed for CC(C)(C#Cc1ccc(-c2ccc(Cl)c3c(NS(C)(=O)=O)nn(CC(F)(F)F)c23)c([C@H](Cc2cc(F)cc(F)c2)NC(=O)Cn2nc(C(F)(F)F)c3c2C(F)(F)[C@@H]2C[C@H]32)n1)S(C)(=O)=O [compound of Formula (Ia)] ?
## Result 193

###

Experiment: PK of compound of Formula (Ia) after single subcutaneous dose of solution formulations in Wistar Han rats
Format: in vivo
Conditions: male, Wistar Han, rat, plasma, sc, 50 mg/kg, 2016 h; individual rats; SC 50 mg/kg; solution V, 300 mg/mL
Description: Formulations containing the compound of Formula (Ia), or a pharmaceutically acceptable salt thereof, were prepared as solutions and optionally administered subcutaneously or intramuscularly to rats, rabbits, and/or dogs. A solution of about 400 mg/mL of the compound of Formula (Ia) having 19.14 w/w % water, 40.66 w/w % PEG 300, 35.20 w/w % of a sodium salt of a compound of Formula (Ia), and 5.00% ethanol was prepared. […]
Measure Name: concentration at 2016 h (nM)
API: value field is a number in nM; no unit string.

## Task Which concentration at 2016 h is listed for CC(C)(C#Cc1ccc(-c2ccc(Cl)c3c(NS(C)(=O)=O)nn(CC(F)(F)F)c23)c([C@H](Cc2cc(F)cc(F)c2)NC(=O)Cn2nc(C(F)(F)F)c3c2C(F)(F)[C@@H]2C[C@H]32)n1)S(C)(=O)=O [compound of Formula (Ia)] ?
## Result 138

###

Assay: PK of compound of Formula (Ia) after single subcutaneous dose of solution formulations in beagle dogs
Format: in vivo
Settings: male, beagle, dog, plasma, sc, 6 mg/kg, mean ± SD, n = 3 dogs; SC 6 mg/kg; solution V, 300 mg/mL; read-out: AUC0-2688 h
Measure Name: AUC(0-t)

## Task Which AUC(0-t) is listed for CC(C)(C#Cc1ccc(-c2ccc(Cl)c3c(NS(C)(=O)=O)nn(CC(F)(F)F)c23)c([C@H](Cc2cc(F)cc(F)c2)NC(=O)Cn2nc(C(F)(F)F)c3c2C(F)(F)[C@@H]2C[C@H]32)n1)S(C)(=O)=O [compound of Formula (Ia)] ?
## Result 110 µM·h

###

Assay: PK of compound of Formula (Ia) after single subcutaneous dose of solution formulations in Wistar Han rats
Format: in vivo
Conditions: male, Wistar Han, rat, plasma, sc, 50 mg/kg, 1680 h; mean (rat #1 NS); SC 50 mg/kg; solution T, 400 mg/mL
Measure Name: concentration at 1680 h (nM)
API: value field is a number in nM; no unit string.

## Task Which concentration at 1680 h is listed for CC(C)(C#Cc1ccc(-c2ccc(Cl)c3c(NS(C)(=O)=O)nn(CC(F)(F)F)c23)c([C@H](Cc2cc(F)cc(F)c2)NC(=O)Cn2nc(C(F)(F)F)c3c2C(F)(F)[C@@H]2C[C@H]32)n1)S(C)(=O)=O ?
## Result 145

###

Experiment: PK of compound of Formula (Ia) after single intramuscular dose of solution formulations in Wistar Han rats
Assay type: in vivo
Settings: Wistar Han, rat, plasma, intramuscular, 100 mg/kg, Solution K (~500 mg/mL, ethanol); IM 100 mg/kg; Wistar Han rats; mean, n = 4; 96.0 h; read-out: Plasma concentration, Mean
Measure Name: concentration at 96 h (nM)
API: value field is a number in nM; no unit string.

## Task Which concentration at 96 h is listed for CC(C)(C#Cc1ccc(-c2ccc(Cl)c3c(NS(C)(=O)=O)nn(CC(F)(F)F)c23)c([C@H](Cc2cc(F)cc(F)c2)NC(=O)Cn2nc(C(F)(F)F)c3c2C(F)(F)[C@@H]2C[C@H]32)n1)S(C)(=O)=O ?
## Result 401

###

Assay: PK of compound of Formula (Ia) after single subcutaneous dose of solution formulations in Wistar Han rats
Format: in vivo
Details: male, Wistar Han, rat, plasma, sc, 50 mg/kg, 3.00 h; mean, n = 5 rats; SC 50 mg/kg; solution T, 400 mg/mL
Measure Name: concentration at 3 h (nM)
API: value field is a number in nM; no unit string.

## Task Which concentration at 3 h is listed for CC(C)(C#Cc1ccc(-c2ccc(Cl)c3c(NS(C)(=O)=O)nn(CC(F)(F)F)c23)c([C@H](Cc2cc(F)cc(F)c2)NC(=O)Cn2nc(C(F)(F)F)c3c2C(F)(F)[C@@H]2C[C@H]32)n1)S(C)(=O)=O ?
## Result 135

###

Experiment: PK of compound of Formula (Ia) after single subcutaneous dose of solution formulations in Wistar Han rats
Assay type: in vivo
Conditions: male, Wistar Han, rat, plasma, sc, 50 mg/kg, 1.00 h; mean, n = 3 rats; SC 50 mg/kg; solution S, 500 mg/mL
Description: Formulations containing the compound of Formula (Ia), or a pharmaceutically acceptable salt thereof, were prepared as solutions and optionally administered subcutaneously or intramuscularly to rats, rabbits, and/or dogs. A solution of about 400 mg/mL of the compound of Formula (Ia) having 19.14 w/w % water, 40.66 w/w % PEG 300, 35.20 w/w % of a sodium salt of a compound of Formula (Ia), and 5.00% ethanol was prepared. […]
Measure Name: concentration at 1 h

## Task Which concentration at 1 h is listed for CC(C)(C#Cc1ccc(-c2ccc(Cl)c3c(NS(C)(=O)=O)nn(CC(F)(F)F)c23)c([C@H](Cc2cc(F)cc(F)c2)NC(=O)Cn2nc(C(F)(F)F)c3c2C(F)(F)[C@@H]2C[C@H]32)n1)S(C)(=O)=O ?
## Result 0.0492 µM
